Values from the supplement of paper PMC10567573

B1: NP_002788.1 (parent)
chain: DGWIRVSSDNVADLHEKYSGSTP

# Variants of: B1
# Run Description: protein stability index of a GFP-peptide fusion (GPS, HEK-293T) (PSI 1-6); higher = more stable;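 note: lentivirally expressed fusion library, cells FACS-sorted into six equal-sized GFP/DsRed ratio bins, PSI computed from sequencing read fractions per bin weighted by bin number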
# Assay Context: c terminus: native
Kindly supply the reported protein stability index values for the records listed here.
Simply state the number, no unit and no words.

# variant DGWIRVSSDNVYDLHEKYSGSTP [A12Y] ; its protein stability index = 2.73

# variant DGWIRVSSDNVADLHEKYSGSVP [T22V] ; its protein stability index = 2.46

# variant DGWIRVSSDNVADLHEKYLGSTP [S19L] ; its protein stability index = 2

# variant DGWIRVSRDNVADLHEKYSGSTP [S8R] ; its protein stability index = 2.31

# variant DGWIRVSSDNFADLHEKYSGSTP [V11F] ; its protein stability index = 2.37

# variant DGWIRVSSDNVACLHEKYSGSTP [D13C] ; its protein stability index = 2.6

# variant DGWIRVSSHNVADLHEKYSGSTP [D9H] ; its protein stability index = 2.59

# variant DGWIRVSSDNVADLHEKYSGSTL [P23L] ; its protein stability index = 3.93

# variant DGWIRVSSDNVADLHAKYSGSTP [E16A] ; its protein stability index = 2.5

# variant DGWIRVSSDNVADSHEKYSGSTP [L14S] ; its protein stability index = 3.01

# variant DGWIGVSSDNVADLHEKYSGSTP [R5G] ; its protein stability index = 3.15

# variant DGWIIVSSDNVADLHEKYSGSTP [R5I] ; its protein stability index = 2.67

# variant DGWIRVSSDNVADLHEKYSWSTP [G20W] ; its protein stability index = 2.9

# variant DGWIRSSSDNVADLHEKYSGSTP [V6S] ; its protein stability index = 3.41

# variant DGWIRVSSDNVFDLHEKYSGSTP [A12F] ; its protein stability index = 2.32

# variant DGWIRVSSDNVADLHEKESGSTP [Y18E] ; its protein stability index = 3.23

# variant DGWIRVSSDNVADLREKYSGSTP [H15R] ; its protein stability index = 2.33

# variant DGWIRVSSDNVHDLHEKYSGSTP [A12H] ; its protein stability index = 2.85

# variant DGWIRVSSDNSADLHEKYSGSTP [V11S] ; its protein stability index = 2.47

# variant DGWIEVSSDNVADLHEKYSGSTP [R5E] ; its protein stability index = 2.96

# variant DGWIRVSSDNVADLHDKYSGSTP [E16D] ; its protein stability index = 2.58

# variant DHWIRVSSDNVADLHEKYSGSTP [G2H] ; its protein stability index = 2.51
